- ASSAY_TEXT: recombinant barcode read abundance after kanamycin selection (control-corrected) (log10(CPM+1)); higher = more efficient recombination; sequences stand for … in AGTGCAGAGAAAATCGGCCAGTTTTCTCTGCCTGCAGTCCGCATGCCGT…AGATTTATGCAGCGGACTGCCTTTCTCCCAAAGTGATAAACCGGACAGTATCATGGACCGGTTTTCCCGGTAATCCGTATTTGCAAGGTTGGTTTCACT; site = the 11-nt target
READOUT_NAME: recombinant barcode read abundance (log10)

Some entries whose results are on file:
MONOMER_SEQUENCE	MEAS_VALUE
GGAGGAACTTGGGTTCTAACCTGTTGCCT (site GGAGGAACTAG)	2.39
TCCGATACTTGGGTTCTAACCTGTTGCGT (site TCCGATACTAC)	1.64
TTAGTCCCTTGGGTTCTAACCTGTTGCCG (site TTAGTCCCTCG)	2.14
ACGAAGCCTTGGGTTCTAACCTGTTGCCT (site GCGACGCCTAG)	0.19
CTTCGTACTTGGGTTCTAACCTGTTGCCA (site CTTCGTACTTG)	0.213
GTTCAGACTTGGGTTCTAACCTGTTGCTT (site GTTCAGACTAA)	1.06

Go through the list and state recombinant barcode read abundance (log10) for each entry.
1. CTAATGCCTTGGGTTCTAACCTGTTGCAT (site CTAATGACTGT)
2. TGGATCACTTGGGTTCTAACCTGTTGCCT (site TGGATCACTAG)

1. 0.0624
2. 1.09

* * *

- ASSAY_TEXT: recombinant barcode read abundance after kanamycin selection (control-corrected) (log10(CPM+1)); higher = more efficient recombination; sequences stand for … in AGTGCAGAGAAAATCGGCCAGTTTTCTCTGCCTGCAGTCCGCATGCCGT…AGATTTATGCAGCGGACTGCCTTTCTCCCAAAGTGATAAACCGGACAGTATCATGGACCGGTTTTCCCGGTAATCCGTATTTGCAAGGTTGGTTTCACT; site = the 11-nt target
READOUT_NAME: recombinant barcode read abundance (log10)

Some entries whose results are on file:
MONOMER_SEQUENCE	MEAS_VALUE
TCGCTAGCTTGGGTTCTAACCTGTTGCCT (site GCGCTAGCTAG)	0.0173
TACACAGCTTGGGTTCTAACCTGTTGCCT (site TAGACAGCTAG)	0.249
AGTCTAGCTTGGGTTCTAACCTGTTGCCG (site AGTCTAGCTAG)	0.083
GGTGGGGCTTGGGTTCTAACCTGTTGCTG (site GGTGGGGCTCA)	2.24

Go through the list and state recombinant barcode read abundance (log10) for each entry.
1. GTCCAGACTTGGGTTCTAACCTGTTGCCT (site GTGCAGACTAG)
2. TGATAGCCTTGGGTTCTAACCTGTTGCCT (site AGATAGCCTAG)
3. ATAAGCCCTTGGGTTCTAACCTGTTGCCT (site ATAAGCCCTAG)
4. TCCTGGGCTTGGGTTCTAACCTGTTGCCG (site TTATGGGCTCG)
5. CTACGTACTTGGGTTCTAACCTGTTGCCT (site ATACGTACTAG)
6. TCCGTGACTTGGGTTCTAACCTGTTGCCT (site TCCGTGCCTAG)
7. AATTCACCTTGGGTTCTAACCTGTTGCCT (site TATTCACCTAG)

1. 0.508
2. 0.063
3. 1.36
4. 0.0305
5. 0.00899
6. 0
7. 0.129

Go through the list and state recombinant barcode read abundance (log10) for each entry.
1. GTCATGTCTTGGGTTCTAACCTGTTGCTC (site AGACGACCTCC)
2. TAGGGCACTTGGGTTCTAACCTGTTGCTG (site TAGGGCACTCA)
3. GCCCTCCCTTGGGTTCTAACCTGTTGCCT (site GCTCTCCCTAG)
4. ATTTGCACTTGGGTTCTAACCTGTTGCCT (site ATTTGAACTAG)

0.0394
2.1
0.597
0.14

Go through the list and state recombinant barcode read abundance (log10) for each entry.
1. AACCCTACTTGGGTTCTAACCTGTTGCCT (site TACCCTACTAG)
2. CGCAGCTCTTGGGTTCTAACCTGTTGCCT (site CGCAGCTCTAG)
3. GACGGGGCTTGGGTTCTAACCTGTTGCAG (site GACGGAGCTCA)
4. AATACTACTTGGGTTCTAACCTGTTGCTG (site AGTACTCCTCA)
5. CTATTAACTTGGGTTCTAACCTGTTGCTA (site CTATTAACTTA)
6. CACGCCTCTTGGGTTCTAACCTGTTGCCT (site GACGCCTCTAG)

1: 0.193; 2: 0.0301; 3: 0.753; 4: 0.196; 5: 0.328; 6: 0.385

* * *

- ASSAY_TEXT: recombinant barcode read abundance after kanamycin selection (control-corrected) (log10(CPM+1)); higher = more efficient recombination; sequences stand for … in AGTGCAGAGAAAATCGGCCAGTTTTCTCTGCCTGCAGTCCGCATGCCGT…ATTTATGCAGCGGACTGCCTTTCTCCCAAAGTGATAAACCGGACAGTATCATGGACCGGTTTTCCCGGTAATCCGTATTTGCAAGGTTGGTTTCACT; site = the 11-nt target
READOUT_NAME: recombinant barcode read abundance (log10)
One number for each entry.

MONOMER_SEQUENCE	MEAS_VALUE
AAACAGTAGTGGGTTCTAACCTGTTGCCTAG [AAACAGTCTAG_LTGcore_AG_RTGcore_CT] (site AAACAGTCTAG) (LTG core: AG, RTG core: CT)	0.0711
TTATAAATGTGGGTTCTAACCTGTTGCCTCA [TTATAAACTAG_LTGcore_TG_RTGcore_TG] (site TTATAAACTAG) (LTG core: TG, RTG core: TG)	0.0981

Quick one: recombinant barcode read abundance (log10) for ATGCTTTCGTGGGTTCTAACCTGTTGCCTAG [ATGCTTTCTAG_LTGcore_CG_RTGcore_CT] (site ATGCTTTCTAG) (LTG core: CG, RTG core: CT) ?
0.0216

* * *

- ASSAY_TEXT: recombinant barcode read abundance after kanamycin selection (control-corrected) (log10(CPM+1)); higher = more efficient recombination; sequences stand for … in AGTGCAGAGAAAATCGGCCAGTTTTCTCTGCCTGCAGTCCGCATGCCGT…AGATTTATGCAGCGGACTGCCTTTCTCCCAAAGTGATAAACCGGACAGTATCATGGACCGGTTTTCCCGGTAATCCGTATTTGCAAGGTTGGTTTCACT; site = the 11-nt target
Lab note: anything with recombinant barcode read abundance (log10) at or over 0.5 counts as yes (1); the rest go in no (0).

Would you please look over these solved cases?
MONOMER_SEQUENCE	LABEL
ACCTAACCTTGGGTTCTAACCTGTTGCAG (site ACCTAACCTCT)	yes (1)
ACTAGTCCTTGGGTTCTAACCTGTTGCCA (site ACTACTCCTTC)	no (0)
CAGGACCCTTGGGTTCTAACCTGTTGCCT (site CATGACCCTAG)	no (0)

Here is the next item to consider.
Given CTCCTCTCTTGGGTTCTAACCTGTTGCAT (site CTCCTCTCTAT) , state whether its recombinant barcode read abundance (log10) is at least 0.5.
yes (1)

* * *

Give measured recombinant UMI read abundance (log10) for each item. Keep answers brief.
- ASSAY_TEXT: recombinant UMI read abundance after kanamycin selection (control-corrected) (log10(CPM+1)); higher = more efficient recombination; extreme values may be limits of the assay; sequences stand for … in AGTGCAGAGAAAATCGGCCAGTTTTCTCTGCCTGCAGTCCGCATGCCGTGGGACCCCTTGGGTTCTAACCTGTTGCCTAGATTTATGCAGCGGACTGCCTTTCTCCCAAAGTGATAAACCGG…AGGTTGGTTTCACT; site = the 11-nt donor
Answers are plain numbers.

Some entries whose results are on file:
MONOMER_SEQUENCE	recombinant UMI read abundance (log10)
TAGTTGACATGGACCGGTTTTCCCGGTAATCCGTATTTGCT (site TAGTTGACTAG)	2.13
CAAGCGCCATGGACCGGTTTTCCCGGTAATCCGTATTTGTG (site CCAGCGCCTCA)	0.00697
CTTCTCTCATGGACCGGTTTTCCCGGTAATCCGTATTTGTT (site CTTCTCTCTCA)	0.0142

Go through the list and state recombinant UMI read abundance (log10) for each entry.
1. CAAGCGGCATGGACCGGTTTTCCCGGTAATCCGTATTTGCT (site CAAGCTGCTAG)
2. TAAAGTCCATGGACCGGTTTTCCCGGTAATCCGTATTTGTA (site TAATGTCCTTA)

1: 0; 2: 0.0108

* * *

- ASSAY_TEXT: recombinant barcode read abundance after kanamycin selection (control-corrected) (log10(CPM+1)); higher = more efficient recombination; sequences stand for … in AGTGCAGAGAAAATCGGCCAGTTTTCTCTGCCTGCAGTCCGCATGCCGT…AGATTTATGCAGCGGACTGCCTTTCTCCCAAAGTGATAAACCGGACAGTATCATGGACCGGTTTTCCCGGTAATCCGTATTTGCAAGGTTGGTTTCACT; site = the 11-nt target
Give measured recombinant barcode read abundance (log10) for each item. Keep answers brief.
Numbers only.

MONOMER_SEQUENCE	MEAS_VALUE
AGTAATTCTTGGGTTCTAACCTGTTGCCT (site AGCAATTCTAG)	0.0536
CGGTCTACTTGGGTTCTAACCTGTTGCCT (site CGGTCTACTAG)	0.219
CGAGTGTCTTGGGTTCTAACCTGTTGCTA (site GATCACCCTAT)	0.0951
AGCGGGCCTTGGGTTCTAACCTGTTGCCT (site AGCGGCCCTAG)	1.08

Go through the list and state recombinant barcode read abundance (log10) for each entry.
1. AGGATTACTTGGGTTCTAACCTGTTGCCT (site AGGACTTCTAG)
2. CGAATCCCTTGGGTTCTAACCTGTTGCCT (site CGAATCACTAG)
3. GATATAGCTTGGGTTCTAACCTGTTGCCT (site GATAGAGCTCG)
4. ACTGAGTCTTGGGTTCTAACCTGTTGCAA (site ACTGAGTCTTT)

1: 0.161; 2: 0.107; 3: 0.54; 4: 1.87

Go through the list and state recombinant barcode read abundance (log10) for each entry.
1. TGGCGTACTTGGGTTCTAACCTGTTGCCT (site TGGTGTACTAG)
2. CATAGCCCTTGGGTTCTAACCTGTTGCAT (site CATAGTCCTAT)

[0.149, 0.0192]
